- assay.target: Human plasma kallikrein (Homo sapiens (Human), UniProt P03952)
- Sequence (P03952 391-638): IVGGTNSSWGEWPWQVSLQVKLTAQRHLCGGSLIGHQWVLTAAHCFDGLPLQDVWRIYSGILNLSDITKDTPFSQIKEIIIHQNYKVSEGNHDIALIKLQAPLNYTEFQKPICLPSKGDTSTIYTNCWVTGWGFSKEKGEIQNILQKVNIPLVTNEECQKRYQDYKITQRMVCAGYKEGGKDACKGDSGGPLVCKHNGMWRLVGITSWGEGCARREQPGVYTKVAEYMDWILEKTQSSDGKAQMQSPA
- Sequence (P03952 20-390 partner): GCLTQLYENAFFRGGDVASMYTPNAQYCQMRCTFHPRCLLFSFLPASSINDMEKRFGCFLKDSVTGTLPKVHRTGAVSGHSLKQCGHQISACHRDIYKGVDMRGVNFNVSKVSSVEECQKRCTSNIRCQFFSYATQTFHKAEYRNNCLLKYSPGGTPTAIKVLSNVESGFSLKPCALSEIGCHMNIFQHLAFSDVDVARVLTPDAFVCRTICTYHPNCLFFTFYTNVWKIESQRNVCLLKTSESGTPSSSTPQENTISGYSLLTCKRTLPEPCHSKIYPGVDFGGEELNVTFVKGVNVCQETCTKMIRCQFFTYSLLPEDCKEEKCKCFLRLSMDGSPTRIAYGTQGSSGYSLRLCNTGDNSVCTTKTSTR
- test.name: Determination of the IC50 for plasma kallikrein (fluorogenic substrate H-DPro-Phe-Arg-AFC)
- test.conditions: 37° C., read-out: IC50 (human PKaI)
pIC50: −log10 of the molar value.
test.readout: pIC50

Some compounds with known pIC50 results, for comparison:
Nc1nccc2cc(CNC(=O)c3cn(Cc4ccc(N5CCC(CO)C5)nc4)nc3C(F)(F)F)ccc12 (stereo not shown) [Example 69] : 7.49
Cc1nc2[nH]ccc2c(C)c1CNC(=O)c1cn(Cc2ccc(Cn3ccccc3=O)cc2)nc1C(F)(F)F [Example 8] : 8.43
Nc1nccc2cc(CNC(=O)c3cn(Cc4cnc(N5CCCC5)cn4)nc3C(F)(F)F)ccc12 [Example 65] : 7.83
Cc1cnn(Cc2ccc(Cn3cc(C(=O)NCc4ccc5c(N)nccc5c4)c(C4CCC4)n3)cc2)c1 [Example 14] : 8.34
CCOc1ccc(Cn2cc(C(=O)NCc3ccc4c(N)nccc4c3)c(-c3ccccc3)n2)cn1 [Example 26] : 6.69

(I) Cc1cnn(Cc2ccc(Cn3cc(C(=O)NCc4ccc5[nH]c(C)cc5c4)c(C(F)(F)F)n3)cc2)c1 [Example 110]
(II) Cc1cnn(Cc2ccc(Cn3cc(C(=O)NCc4cc5cc[nH]c5nc4C)cn3)cc2)c1 [Example 22]
(III) Nc1nn(Cc2ccc(Cn3ccccc3=O)cc2)cc1C(=O)NCc1cccc2[nH]ncc12 [Example 113]
(IV) Cc1cnn(Cc2ccc(Cn3cc(C(=O)NCc4ccnc5[nH]ccc45)c(C(F)(F)F)n3)cc2)c1 [Example 125]
Put the items in order so that reported pIC50 rises from first to last. # output: labels, in the requested order
IV, I, II, III
(IV: 5.40, I: 6.25, II: 6.88, III: 7.88)

----------
Please consider the recorded IC50 for Human KLK1 (Homo sapiens (Human), UniProt P06870) in what follows.

The examples below pair each entry with its known result.
N#Cc1cnn(Cc2ccc(Cn3cc(C(=O)NCc4ccc5c(N)nccc5c4)c(C(F)(F)F)n3)cc2)c1 : > 10 µM
Cc1cnn(Cc2ccc(Cn3cc(C(=O)NCc4ccc5c(N)nccc5c4)c(-c4ccccc4)n3)cc2)c1 : > 10 µM

Kindly review the next compound as well.
Please state recorded IC50 (tested on Human KLK1 (Homo sapiens (Human), UniProt P06870)) of Cc1cnn(Cc2ccc(Cn3cc(C(=O)NCc4cccc5[nH]ccc45)c(C(F)(F)F)n3)cc2)c1
Sequence (P06870 25-262): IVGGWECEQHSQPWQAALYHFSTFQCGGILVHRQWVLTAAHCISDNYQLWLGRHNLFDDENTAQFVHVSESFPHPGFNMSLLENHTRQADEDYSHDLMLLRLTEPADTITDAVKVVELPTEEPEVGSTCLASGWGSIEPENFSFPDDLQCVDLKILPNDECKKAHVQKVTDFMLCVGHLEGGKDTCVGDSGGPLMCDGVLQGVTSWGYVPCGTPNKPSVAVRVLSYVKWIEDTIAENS
> 10 µM

----------
- assay.target: Factor XIIa (Homo sapiens (Human), UniProt P00748)
- Sequence (P00748 373-615): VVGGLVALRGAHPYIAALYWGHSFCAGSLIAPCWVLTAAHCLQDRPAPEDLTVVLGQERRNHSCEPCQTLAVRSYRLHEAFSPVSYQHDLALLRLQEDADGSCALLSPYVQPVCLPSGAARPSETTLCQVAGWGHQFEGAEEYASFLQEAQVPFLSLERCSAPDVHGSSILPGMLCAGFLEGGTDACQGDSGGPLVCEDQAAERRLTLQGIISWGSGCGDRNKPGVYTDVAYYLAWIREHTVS
- test.name: Determination of enzyme selectivity, Factor XIIa
- Assay type: biochemical
- test.conditions: substrate at Km concentration
Parameter IC50: see the listing below.

Worked cases, IC50 given:
C[C@H]1CCN(c2ccc(Cn3cc(C(=O)NCc4ccc5c(N)nccc5c4)c(C(F)(F)F)n3)cn2)C1 : > 1000 nM
Nc1nccc2cc(CNC(=O)c3cn(Cc4ccc(N5CCC(F)(F)C5)nc4)nc3C(F)(F)F)ccc12 : > 10000 nM
O=C(NCc1cnc2[nH]ccc2c1)c1cnn(Cc2ccc(COc3cccc(F)n3)cc2)c1 : > 40000 nM

Now, please, on to the next molecule.
Form field: reported IC50 of Cc1cnn(Cc2ccc(Cn3cc(C(=O)NCc4ccc5c(N)nccc5c4)c(N)n3)cc2)c1
> 10000 nM

----------
- assay.target: Human plasma kallikrein (Homo sapiens (Human), UniProt P03952)
- test.name: Determination of the IC50 for plasma kallikrein (fluorogenic substrate H-DPro-Phe-Arg-AFC)
- test.conditions: 37° C., read-out: IC50 (human PKaI)
test.readout: IC50 (nM)

Solved cases (10 shown):
Nc1nccc2cc(CNC(=O)c3cnn(Cc4cc5cc(OC(F)(F)F)ccc5[nH]4)c3)ccc12 [Example 52] : 300
CCCOc1ccc(Cn2cc(C(=O)NCc3ccc4c(N)nccc4c3)c(C(F)(F)F)n2)cn1 [Example 71] : 63.6
Cc1cnn(Cc2ccc(Cn3cc(C(=O)NCc4cnc5[nH]ccc5c4)c(C(F)(F)F)n3)cc2)c1 [Example 121] : 62
Cc1cnn(Cc2ccc(Cn3cc(C(=O)NCc4ccc5c(N)nccc5c4)c(N4CCOCC4)n3)cc2)c1 [Example 21] : 6.46
Cc1cnn(Cc2ccc(Cn3cc(C(=O)NCc4n[nH]c5ccc(Cl)cc45)c(C(F)(F)F)n3)cc2)c1 [Example 127] : 537
Cc1cnn(Cc2ccc(Cn3cc(C(=O)NCc4cc5cc[nH]c5nc4C)nn3)cc2)c1 [Example 116] : 507
N#Cc1cnn(Cc2ccc(Cn3cc(C(=O)NCc4ccc5c(N)nccc5c4)c(C(F)(F)F)n3)cc2)c1 [Example 77] : 85.4
Nc1nccc2cc(CNC(=O)c3cnn(Cc4ccnc(N5CCCC5)c4)c3C(F)(F)F)ccc12 [Example 51] : 576
Nc1nccc2cc(CNC(=O)c3cn(Cc4ccc(N5CC[C@H](F)C5)nc4)nc3C(F)(F)F)ccc12 [Example 60] : 9.61
CCOc1ccc(Cn2cc(C(=O)NCc3ccc4c(N)nccc4c3)c(N)n2)cn1 [Example 98] : 62.4

(a) Cc1cnn(Cc2ccc(Cn3cc(C(=O)NCc4cccc5[nH]ncc45)c(C(F)(F)F)n3)cc2)c1 [Example 124]
(b) Nc1nn(Cc2ccc(N3CCCC3)nc2)cc1C(=O)NCc1ccc2c(N)nccc2c1 [Example 99]
Returns the identifier with the smallest measured IC50 among a and b . When you have decided, please share the label of that item.
b

(1) Nc1nccc2cc(CNC(=O)c3cn(Cc4ccc(N5CCCC5)nc4)nc3C(F)(F)F)ccc12 [Example 24]
(2) Cc1cnn(Cc2ccc(Cn3cnc(C(=O)NCc4ccc5c(N)nccc5c4)c3)cc2)c1 [Example 10]
Between these two entries, 1 and 2 , state which has the higher IC50. Reply briefly: the label of your chosen item.
1
(1: 9.66 nM, 2: 2.4 nM)

----------
In this section, each of the compounds is paired with its reported IC50.
- assay.target: Human KLK1 (Homo sapiens (Human), UniProt P06870)
- test.name: Determination of the IC50 for KLK1 (fluorogenic substrate H-DVal-Leu-Arg-AFC)
- Format: biochemical
- test.conditions: 37° C.
- Procedure: Determination of the IC50 for KLK1 Human KLK1 (Callbiochem) was incubated at 37° C. with the fluorogenic substrate H-DVal-Leu-Arg-AFC and various concentrations of the test compound. Residual enzyme activity (initial rate of reaction) was determined by measuring the change in […] at 410 nm and the IC50 value for the test compound was determined.

See these solved cases before continuing.
Cc1cnn(Cc2ccc(Cn3cc(C(=O)NCc4cc5cc[nH]c5nc4C)nn3)cc2)c1 : > 10 µM
O=C(NCc1n[nH]c2ccc(Cl)cc12)c1cn(Cc2ccc(Cn3ccccc3=O)cc2)nc1C(F)(F)F : > 10 µM
Cc1cnn(Cc2ccc(Cn3cc(C(=O)NCc4c(C)nc5[nH]ccc5c4C)c(C4CC4)n3)cc2)c1 : > 10 µM
Nc1nccc2cc(CNC(=O)c3cnn(Cc4cc5cc(OC(F)(F)F)ccc5[nH]4)c3)ccc12 : > 40 µM

Which IC50 value belongs to Cc1cnn(Cc2ccc(Cn3cc(C(=O)NCc4cnc5[nH]ccc5c4)c(C(F)(F)F)n3)cc2)c1 ?
> 10 µM

----------
A short record of IC50 observed with Human KLK1 (Homo sapiens (Human), UniProt P06870) follows.

Worked examples, 3 molecules total:
Nc1nccc2cc(CNC(=O)c3cn(Cc4ccnc(N5CCC(F)(F)C5)c4)nc3C(F)(F)F)ccc12 : > 10 µM
Cc1cnn(Cc2ccc(Cn3cc(C(=O)NCc4ccc5c(N)nccc5c4)c(CO)n3)cc2)c1 : 6.64 µM
COc1cc(Cn2cc(C(=O)NCc3ccc4c(N)nccc4c3)c(C3CC3)n2)cnc1N1CCCC1 : 2.21 µM

Can you look up IC50 on Human KLK1 (Homo sapiens (Human), UniProt P06870) for CCCOc1ccc(Cn2cc(C(=O)NCc3ccc4c(N)nccc4c3)c(C(F)(F)F)n2)cn1 ?
> 10 µM

Provide the documented IC50 with Human KLK1 (Homo sapiens (Human), UniProt P06870) as the system for O=C(NCc1cnc2[nH]ccc2c1)c1cnn(Cc2cccc(Oc3ncccc3F)c2)c1
> 40 µM

Reported IC50 for Human KLK1 (Homo sapiens (Human), UniProt P06870), given CCn1c(C(=O)NCc2ccc3c(N)nccc3c2)cc(C)c1Cc1csc(-c2ccccc2)n1 ?
> 10 µM

Return IC50 measured with Human KLK1 (Homo sapiens (Human), UniProt P06870) given this molecule: Cc1cnn(Cc2ccc(Cn3cc(C(=O)NCc4ccc5c(N)nccc5c4)c(C(=O)O)n3)cc2)c1
> 10 µM

Lab request: please report IC50 under test system Human KLK1 (Homo sapiens (Human), UniProt P06870) for NC(=O)c1cnn(Cc2ccc(Cn3cc(C(=O)NCc4ccc5c(N)nccc5c4)c(C(F)(F)F)n3)cc2)c1
> 10 µM
